Ref: ChEMBL document CHEMBL1201862

- System: 786-0
- experiment: NCI tumour cell line growth inhibition, 48 h
Calls of active or inactive are those of the source. Rule as the data show it: active = GI50 up to about 1.1 µM and inactive = higher.
Please reply with one of these outcomes: active, inactive

Before answering, review these 10 worked examples.
# compound, labelValue
rows = [
    ("CC1=NN(C(=O)c2ccccc2O)C(c2ccccc2Cl)C1C(=O)Nc1ccccc1 (configuration not stated)", "active"),
    ("O=C1C[C@@]23CCC4(CC2=CCC[C@H]3O1)OCCO4", "inactive"),
    ("CCOC(=O)C1=c2[nH]c3cccc4cccc(c43)n2C=C(C(C)=O)C1CC(C)=O (configuration not stated)", "inactive"),
    ("CN(C)CCCN1CCC2(CCC(C(C)(C)C)CC2)CC1", "inactive"),
    ("Nc1c2c(nc3ccccc13)-c1ccccc1CCC2", "inactive"),
    ("CN(C)C1(N(C)C)Oc2c(c(=O)n(C)c(=O)n2C)C(c2ccccc2)C1(F)F (configuration not stated)", "inactive"),
    ("CCSCC(=O)N1CCc2c([nH]c3ccccc23)C1=O", "inactive"),
    ("CNC(=O)OCc1nc(N=[N+]=[N-])n(C)c1COC(=O)NC", "inactive"),
    ("c1ccc2c(c1)-c1nc3ccccc3cc1C2N1CCOCC1 (configuration not stated)", "inactive"),
    ("Cc1c(C(=O)C(=O)c2ccccc2)c(C)c(C(=O)C(=O)c2ccccc2)c(C)c1C(=O)C(=O)c1ccccc1", "inactive"),
]

Assay outcome for CCCCCCOP(=O)(OCCCCCC)OC(C(=O)OC)C(F)(F)F (configuration not stated) : what was it?
inactive

Assay outcome for C#CC(C)(C)OC(=O)C(=[N+]=[N-])C(C)=O : what was it?
inactive

Assay outcome for CCN(CCCN(CC)C(=O)Nc1ccccc1)C(=O)Nc1ccccc1 : what was it?
inactive

###

- Tested on: CAKI-1
- experiment: NCI tumour cell line growth inhibition, 48 h
Active and inactive are the calls of the source. Cut-off read from the data, not from the text of the source: active = GI50 up to about 1.1 µM and inactive = higher.
metricName: GI50

Study these solved cases before continuing.
# compound, GI50
measured = [
    ("COC(=O)c1cc(C)n(NC(=O)OC(C)(C)C)c1C", "> 100 µM (inactive)"),
    ("C=CCN(N=O)C(=O)NCCCC(NC(C)=O)C(=O)NCc1ccccc1 (stereo unspecified)", "> 100 µM (inactive)"),
    ("ClCCCSSCCCCl", "32.2 µM (inactive)"),
    ("CC(CC(C)[C@H]1CCC2[C@H]3C(CC(=O)[C@@]21C)[C@@]1(C)CCC(O)C[C@H]1C[C@@H]3O)C(=O)O (stereo partly specified)", "> 100 µM (inactive)"),
    ("CSCSCC(CO)NC(=O)/C=C/c1c(C)nc(O)nc1O (stereo unspecified)", "56.6 µM (inactive)"),
]

Quick one: give me GI50 for each item below, same order please.
1. CO[C@H]1C=C[C@@]23c4cc5c(cc4CO[C@]2(O)CN(C)[C@H]3C1)OCO5
2. CC(C(=O)n1c2ccccc2c2ccccc21)N(c1ccccc1)c1ccccc1 (stereo unspecified)
3. CC(Oc1cc2oc(=O)cc(-c3ccccc3)c2cc1Cl)C(=O)O (stereo unspecified)
4. O=[N+]([O-])c1ccc(/N=N\c2c(O)c(S(=O)(=O)O)cc3cc(S(=O)(=O)O)ccc23)cc1
5. CC(C)(C)NCC(O)c1ccc(O)c(CO)n1 (stereo unspecified)
6. Cc1[nH]c2ncn(/N=C/c3ccccc3O)c(=N)c2c1Cc1ccccc1
7. O=C(O)CN(c1ccccc1)S(=O)(=O)c1ccc([N+](=O)[O-])cc1

> 100 µM (inactive)
14.5 µM (inactive)
> 100 µM (inactive)
> 100 µM (inactive)
> 100 µM (inactive)
46.1 µM (inactive)
> 100 µM (inactive)

###

- Tested on: MOLT-4
- experiment: NCI tumour cell line growth inhibition, 48 h
Active and inactive are the calls of the source. Cut-off read from the data, not from the text of the source: active = GI50 up to about 1.1 µM and inactive = higher.
Assign GI50 to each entry below.

# compound, experimentalTarget, reportedValue
rows = [
    ("FC(F)(F)c1ccc2nc(Nc3ccc(Cl)c(Cl)c3)c(-c3ccccc3)nc2c1", "MOLT-4", "6.81 µM (inactive)"),
    ("CCOC(=O)c1sc(N)nc1N1CCCC1", "MOLT-4", "> 100 µM (inactive)"),
    ("O=C(Cn1c(-c2ccccc2)cc2ccccc21)N1CCCC1", "MOLT-4", "> 100 µM (inactive)"),
]

Quick one: give me GI50 for each item below, same order please.
1. NC(=O)c1csc(C2OC(COP(=O)(O)CP(=O)(O)OCC3OC(n4cnc5c(N)ncnc54)C(O)C3O)C(O)C2O)n1 (stereo not given)
2. O=C1CNC(=O)c2[nH]cnc2N1
3. NC(Cc1c[nH]c2ccccc12)C(=O)O (stereo not given)
4. O=c1ncccn1[C@@H]1O[C@H](CO)[C@H](O)C1O (stereo not given in full)
5. COc1ccc(C2N(NC(=O)c3ccncc3)C(=O)CS2(=O)=O)cc1F (stereo not given)

1: > 100 µM (inactive); 2: > 100 µM (inactive); 3: > 300 µM (inactive); 4: 61.7 µM (inactive); 5: 14 µM (inactive)

Quick one: give me GI50 for each item below, same order please.
1. O=C1C2=C(C(=O)c3c(O)ccc(O)c31)[C@@H](O)[C@@H](O)[C@@H](O)C2
2. Cc1ccc(S(=O)(=O)n2ccc(-c3ccc4ccn(S(=O)(=O)c5ccc(C)cc5)c4c3)c2)cc1

["2.94 µM (inactive)", "> 100 µM (inactive)"]

###

- Test system: HT-29
- experiment: NCI tumour cell line growth inhibition, 48 h
The source made the active and inactive calls. No stated cut-off is given here; in the data, active = GI50 up to about 1.1 µM and inactive = higher.
Assign GI50 to each entry below.

# compound, reportedValue
rows = [
    ("COC(=O)CSc1cc(Cl)c(C)cc1S(=O)(=O)Nc1n[nH]c(N)n1", "> 10 µM (inactive)"),
    ("COc1ccc(/C=C(/C)[N+](=O)[O-])cc1", "3.1 µM (inactive)"),
    ("O=c1n(-c2ccccc2)c(=O)n2n1C1Cc3ccccc3C12 (stereo unspecified)", "> 100 µM (inactive)"),
    ("CC(SC(=S)N1CCOCC1)C(=O)Nc1nnc(-c2ccc(Cl)cc2)o1 (stereo unspecified)", "36.9 µM (inactive)"),
    ("O=[N+]([O-])c1ccc(/N=N\\c2c(O)c(S(=O)(=O)O)cc3cc(S(=O)(=O)O)ccc23)cc1", "> 100 µM (inactive)"),
]

Proceed to the following item.
Sample [N-]=[N+]=Nc1c(Cc2ccccc2)c(=O)oc2ccccc12 — what was its GI50?
21.7 µM (inactive)

###

Assign GI50 to each entry below.
- Tested on: DMS-273
- experiment: NCI tumour cell line growth inhibition, 48 h
Calls of active or inactive are those of the source. No stated cut-off is given here; in the data, active = GI50 up to about 1.1 µM and inactive = higher.

Study these solved cases before continuing.
# compound, GI50
records = [
    ("CCCCCCCC(=O)NCC(O)CNC(=O)CCCCCCC", "> 100 µM (inactive)"),
    ("COc1cc2c[n+](C)c3c4ccccc4ccc3c2cc1OC.COc1cc2cnc3c4ccccc4ccc3c2cc1OC", "2.88 µM (inactive)"),
    ("O=C(O)CN(c1ccccc1)S(=O)(=O)c1ccc([N+](=O)[O-])cc1", "> 100 µM (inactive)"),
    ("COC(=O)C(CCCC1(c2ccccc2)OCCO1)C(C)=O (configuration not stated)", "> 100 µM (inactive)"),
    ("CSCSCC(CO)NC(=O)/C=C/c1c(C)nc(O)nc1O (configuration not stated)", "> 100 µM (inactive)"),
    ("O=C1CCC(c2ccccc2)=NN1c1nsc2ccccc12", "95.9 µM (inactive)"),
]

Sample O=C(O)C12C=CC(C1)c1ccccc12 (configuration not stated) — what was its GI50?
> 100 µM (inactive)

###

- System: HCT-15
metricName: GI50

Quick one: give me GI50 for each item below, same order please.
1. [N-]=[N+]=Nc1c(Cc2ccccc2)c(=O)oc2ccccc12
2. C=C1C(=O)OC2CC3(C)CCCC(C)C3=CC12 (stereo not given)
3. CCC[C@@H](O)C[C@@H]1CCC[C@H](C[C@@H](O)CC)N1C
4. CS/C(=N\C(=S)Nc1ccccc1)Nc1ccccc1
5. CCOC(=O)C1=C(C)N(c2ccc(Cl)cc2)C2(O)C=CC(=O)C3C(=O)N(c4ccccc4)C(=O)C132 (stereo not given)
6. O=C(O)c1ccc(NS(=O)(=O)Cc2ccccc2)cc1
7. CN(C)CCCNc1nnc(NCCCN(C)C)c2c(=O)c3sccc3[nH]c12

1. 31 µM
2. 2.1 µM
3. > 100 µM
4. 17.9 µM
5. 1.82 µM
6. > 100 µM
7. 6.62 µM

###

- System: HOP-62
- experiment: NCI tumour cell line growth inhibition, 48 h
Activity calls are given as the source filed them. Cut-off read from the data, not from the text of the source: active = GI50 up to about 1.1 µM and inactive = higher.
Please reply with one of these outcomes: active, inactive

Before answering, review these 5 worked examples.
# compound, labelValue
data = [
    ("N#Cc1c(-c2cccc(Br)c2)cc(-c2ccc(Cl)cc2)nc1N", "inactive"),
    ("CC(N/N=C(\\S)N1CCN(c2ccccn2)CC1)c1cccc[n+]1[O-] (stereo not given)", "inactive"),
    ("CCOc1ccccc1N1C(=O)C(=O)C(c2nc3ccccc3o2)C(=O)C1=O", "inactive"),
    ("Fc1ccc(Oc2nc3ccc(C(F)(F)F)cc3nc2-c2ccccc2)cc1", "inactive"),
    ("CC1=NN(C(=O)CC(=O)N(C(=O)c2ccccc2)c2ccc(Cl)cc2)C(=O)C1/N=N/c1ccc([N+](=O)[O-])cc1 (stereo not given)", "inactive"),
]

Assay outcome for O=C1OCC2=C1C(c1ccc3c(c1)OCO3)c1cc3c(cc1O2)OCO3 (stereo not given) : what was it?
active

Assay outcome for CN(C)c1ccc(/C=C2/SC(=S)NC2=O)cc1 : what was it?
inactive

Assay outcome for C/C(=C1\N=C(c2ccccc2)OC1=O)c1ccccc1 : what was it?
inactive

Assay outcome for CC1CC[C@@H](C(C)C)[C@H](Oc2nnc(C3OC(CO)C(O)C3O)o2)C1 (stereo not given in full) : what was it?
inactive

Assay outcome for CC1NOC(=O)C1/N=N/c1cccc(Cl)c1 (stereo not given) : what was it?
inactive
